Listed next: entries and their corresponding collision cross section (N2).
- TEST CONTEXT: [M+H]+; instrument: DT; single field, calibrated with Agilent tune mix (Agilent)
MEASURED ENDPOINT: collision cross section (N2) (Å²)

COMPOUND: CCCC/C=C\CCCCCCCC(=O)OC[C@H](COP(=O)(O)OC[C@@H](O)CO)OC(=O)CCCCCCCCCCC/C=C\C/C=C\CCCCC [PG(36:3)]
MEASURED ENDPOINT: collision cross section (N2)
MEASURE UNIT: Å²
REPORTED: 285.4
//
COMPOUND: CCCCCCCCCCCCC=CC[C@@H](O)[C@H](CO)NC(=O)CC=CCCCCCCCCCCCCCCCCCCCCCC [Cer(44:2)]
MEASURED ENDPOINT: collision cross section (N2)
MEASURE UNIT: Å²
REPORTED: 283.5
//
COMPOUND: CCCCC/C=C\C/C=C\CCCCCCCCCC(=O)O[C@H](CO/C=C\CCCCCCCCCCCCCC)COP(=O)(O)OCCN [PE(p36:2)]
MEASURED ENDPOINT: collision cross section (N2)
MEASURE UNIT: Å²
REPORTED: 277.1
//
COMPOUND: CCCCC/C=C\C/C=C\C/C=C\C/C=C\CCCCCC(=O)O[C@H](COC(=O)CCCCCCC/C=C\C/C=C\CCCCC)COP(=O)(O)OCCN [PE(40:6)]
MEASURED ENDPOINT: collision cross section (N2)
MEASURE UNIT: Å²
REPORTED: 284.5
//
COMPOUND: CCCCCCCC/C=C\CCCCCCCCCC(=O)OC[C@@H](O)COP(=O)(O)OC[C@H](N)C(=O)O [LPS(20:1)]
MEASURED ENDPOINT: collision cross section (N2)
MEASURE UNIT: Å²
REPORTED: 231.8
//
COMPOUND: CCCCCCCCCCCCC=CC[C@@H](O)[C@H](COP(=O)([O-])OCC[N+](C)(C)C)NC(=O)CC=CCCCCCCCCCCCCCCCCCC [SM(40:2)]
MEASURED ENDPOINT: collision cross section (N2)
MEASURE UNIT: Å²
REPORTED: 298.4

====

- TEST CONTEXT: [M+Na-2H]-; instrument: DT; single field, calibrated with ESI Low Concentration Tuning Mix (Agilent)

COMPOUND: CCCCCCSC[C@H](NC(=O)CC[C@H](N)C(=O)O)C(=O)NCC(=O)O
collision cross section (N2) [Å²]: 192.4
//
COMPOUND: Nc1ncnc2c1ncn2[C@@H]1O[C@H](COP(=O)(O)OP(=O)(O)O[C@H]2O[C@H](CO)[C@@H](O)[C@H](O)[C@H]2O)[C@@H](O)[C@H]1O
collision cross section (N2) [Å²]: 218.4
//
COMPOUND: Nc1ccn(C2O[C@H](CO)[C@H]3OP(=O)(O)O[C@@H]23)c(=O)n1 (stereo partly drawn) [CYTIDINE 2',3'-CYCLIC PHOSPHATE]
collision cross section (N2) [Å²]: 165

====

- TEST CONTEXT: [M+K]+; instrument: DT; stepped-field
MEASURED ENDPOINT: collision cross section (N2)

STRUCTURE STRING: CCCCCCCC/C=C\CCCCCCCC(=O)O[C@H](COC(=O)CCCCCCCCCCCCCCCCC)COP(=O)(O)OC[C@H](N)C(=O)O
REPORTED: 287.48 Å²

STRUCTURE STRING: CCCCC/C=C\C/C=C\C/C=C\CCCCCCC(=O)O[C@H](COC(=O)CCCCCCC/C=C\C/C=C\CCCCC)COP(=O)(O)OCCN
REPORTED: 282.77 Å²

STRUCTURE STRING: CCCCCCCCCCCCC=CC[C@@H](O)[C@H](COP(=O)([O-])OCC[N+](C)(C)C)NC(=O)CCCCCCCCCCCCCCCCC
REPORTED: 288.38 Å²

STRUCTURE STRING: CCCCCCCC/C=C\C/C=C\CCCCC(=O)OC[C@H](COP(=O)(O)OCCN)OC(=O)CCCC/C=C\C/C=C\CCCCCCCC
REPORTED: 277.24 Å²

STRUCTURE STRING: CCCCCC/C=C\CCCCCCCCCC(=O)O[C@H](COC(=O)CCCCCCC/C=C\CCCCCC)COP(=O)([O-])OCC[N+](C)(C)C
REPORTED: 283.28 Å²

STRUCTURE STRING: CCCCCCCCCCC/C=C\CCCCC(=O)O[C@H](COC(=O)CCCCCCCCCCCCCCCCC)COP(=O)([O-])OCC[N+](C)(C)C
REPORTED: 291.07 Å²

STRUCTURE STRING: CCCCC/C=C\C/C=C\CCCCCCCCCC(=O)O[C@H](COC(=O)CCCCCCC/C=C\CCCCCC)COP(=O)(O)OCCN
REPORTED: 278.94 Å²

STRUCTURE STRING: CCCCC/C=C\C/C=C\C/C=C\C/C=C\CCCCCC(=O)O[C@H](COC(=O)CCCCCCC/C=C\C/C=C\CCCCC)COP(=O)(O)OC[C@H](N)C(=O)O
REPORTED: 292.76 Å²

====

Listed next: entries and their corresponding collision cross section (N2).
- TEST CONTEXT: [M+H]+; instrument: TW
MEASURED ENDPOINT: collision cross section (N2) (Å²)

COMPOUND: CC/C(=N\OC/C=C/Cl)C1=C(O)CC(C2CCOCC2)CC1=O (stereo not drawn) [Tepraloxydim]
MEASURED ENDPOINT: collision cross section (N2)
REPORTED: 184.74

COMPOUND: C=C[C@]1(C)C[C@@H](OC(=O)CSCCN(CC)CC)C2(C)C(C)CC[C@]3(CCC(=O)[C@@H]23)[C@@H](C)[C@@H]1O (stereo partly drawn) [Tiamulin]
MEASURED ENDPOINT: collision cross section (N2)
REPORTED: 218.9

COMPOUND: O=C(O)\C2=C\N(c1cc(c(F)cc1C2=O)N3CCNCC3)CC [Norfloxacine]
MEASURED ENDPOINT: collision cross section (N2)
REPORTED: 171

COMPOUND: Nc1ccc(S(=O)(=O)Nc2ccccn2)cc1 [Sulfapyridine]
MEASURED ENDPOINT: collision cross section (N2)
REPORTED: 142.3

COMPOUND: FC(F)C(F)(F)OCC(Cn1cncn1)c1ccc(Cl)cc1Cl (stereo not drawn) [Tetraconazole]
MEASURED ENDPOINT: collision cross section (N2)
REPORTED: 174.34

COMPOUND: CCOC(=O)C1CC(=O)C(=C(O)C2CC2)C(=O)C1 (stereo not drawn) [Trinexapac-ethyl]
MEASURED ENDPOINT: collision cross section (N2)
REPORTED: 152.92

COMPOUND: COc1nc(C)nc(NC(=O)NS(=O)(=O)c2ccccc2CCC(F)(F)F)n1 [Prosulfuron]
MEASURED ENDPOINT: collision cross section (N2)
REPORTED: 187.01

COMPOUND: C[C@]12Cc3cn[nH]c3C[C@@H]1CC[C@@H]1[C@@H]2CC[C@@]2(C)[C@H]1C[C@H](O)[C@]2(C)O [16B-hydroxystanozolol]
MEASURED ENDPOINT: collision cross section (N2)
REPORTED: 192.1

====

- TEST CONTEXT: [M+H]+; instrument: TW
MEASURED ENDPOINT: collision cross section (N2)

COMPOUND: C=CCOC(Cn1ccnc1)c1ccc(Cl)cc1Cl (stereo not given) [Imazalil]
REPORTED: 164.99 Å²

COMPOUND: CC(C)N1C(=O)N(c2ccccc2)CS/C1=N\C(C)(C)C [Buprofezin]
REPORTED: 173.58 Å²

COMPOUND: Nc1ccc(S(=O)(=O)Nc2cnc3ccccc3n2)cc1 [Sulfaquinoxaline]
REPORTED: 164.8 Å²

COMPOUND: CN1CCN(c2c(F)cc3c(=O)c(C(=O)O)cn4c3c2OCN4C)CC1 [Marbofloxacin]
REPORTED: 179.6 Å²

COMPOUND: CC(C)(C)[C@H](O)[C@H](Cc1ccc(Cl)cc1)n1cncn1 (racemic) [Paclobutrazol]
REPORTED: 168.73 Å²

COMPOUND: C[C@]12CCC(=O)C=C1CC[C@@H]1[C@@H]2CC[C@@]2(C)[C@H]1CC[C@]2(C)O [17a-Methyltestosterone]
REPORTED: 173.7 Å²

COMPOUND: Cc1ccc(/N=C(/O)N(C)C)cc1Cl [Chlortoluron]
REPORTED: 145.96 Å²

COMPOUND: C=C[C@]1(C)C[C@@H](OC(=O)CSC(C)(C)CNC(=O)[C@H](N)C(C)C)[C@]2(C)[C@H](C)CC[C@]3(CCC(=O)[C@H]32)[C@@H](C)[C@@H]1O [Valnemulin]
REPORTED: 233.3 Å²

COMPOUND: CN1CCCN=C1/C=C/c1cccs1 [Pyrantel]
REPORTED: 143 Å²

COMPOUND: C=C1C[C@@]23CC[C@H]4[C@@](C)(CCC[C@@]4(C)C(=O)O)[C@@H]2CC[C@]1(O[C@@H]1O[C@H](CO)[C@@H](O)[C@H](O)[C@H]1O[C@@H]1O[C@H](CO)[C@@H](O)[C@H](O)[C@H]1O)C3 [Steviolbioside]
REPORTED: 235.78 Å²

COMPOUND: CN1C(/C(O)=N/c2ccccn2)=C(O)c2ccccc2S1(=O)=O [Piroxicam]
REPORTED: 170.9 Å²

COMPOUND: CCN(CC)C(=O)c1cccc(C)c1 [DEET]
REPORTED: 142.48 Å²

COMPOUND: O=C(CCCN1CCC(O)(c2ccc(Cl)cc2)CC1)c1ccc(F)cc1 [Haloperidol]
REPORTED: 193.9 Å²

COMPOUND: Cc1nc(N(C)C)nc(OC(=O)N(C)C)c1C [Pirimicarb]
REPORTED: 154.68 Å²

COMPOUND: CO[C@@H]1[C@@H](O[C@@H]2O[C@H](C)[C@@H](O[C@H]3C[C@@](C)(O)[C@@H](OC(=O)CC(C)C)[C@H](C)O3)[C@H](N(C)C)[C@H]2O)[C@@H](CC=O)C[C@@H](C)[C@@H](O)/C=C/C=C/C[C@@H](C)OC(=O)C[C@H]1OC(C)=O [Josamycin]
REPORTED: 306.8 Å²

COMPOUND: C=C1C[C@@]23CC[C@H]4[C@@](C)(CCC[C@@]4(C)C(=O)O[C@@H]4O[C@H](CO)[C@@H](O)[C@H](O)[C@H]4O)[C@@H]2CC[C@]1(O[C@@H]1O[C@H](CO)[C@@H](O)[C@H](O[C@@H]2O[C@H](CO)[C@@H](O)[C@H](O)[C@H]2O)[C@H]1O[C@@H]1O[C@H](CO)[C@@H](O)[C@H](O)[C@H]1O)C3 [Rebaudioside A]
REPORTED: 299.48 Å²

COMPOUND: CNC(=O)N(C)c1nc2ccccc2s1 [Methabenzthiazuron]
REPORTED: 142.47 Å²

COMPOUND: CCOP(=O)(OCC)Oc1ccc([N+](=O)[O-])cc1 [Paraoxon-ethyl]
REPORTED: 156.76 Å²

COMPOUND: CC(COc1ccc(Oc2ccccc2)cc1)Oc1ccccn1 (stereo not given) [Pyriproxifen]
REPORTED: 182.76 Å²

COMPOUND: Cc1cccc(Nc2ccccc2C(=O)O)c1C [Mefenamic acid]
REPORTED: 150.5 Å²

COMPOUND: N#Cc1nn(-c2c(Cl)cc(C(F)(F)F)cc2Cl)c(N)c1S(=O)C(F)(F)F (stereo not given) [Fipronil]
REPORTED: 180.77 Å²

COMPOUND: Cc1ncc([N+](=O)[O-])n1CCO [Metronidazole]
REPORTED: 124.2 Å²

COMPOUND: Fc1ccc(cc1)N\3c2cc(c(F)cc2C(=O)C(/C(=O)O)=C/3)N4CCNCC4 [Sarafloxacine]
REPORTED: 202 Å²

COMPOUND: CCCCc1c(C)nc(NCC)[nH]c1=O [Ethirimol]
REPORTED: 150.65 Å²

COMPOUND: C[C@]12Cc3cn[nH]c3C[C@@H]1CC[C@@H]1[C@@H]2CC[C@@]2(C)[C@H]1CC[C@]2(C)O [Stanozolol]
REPORTED: 185.2 Å²

COMPOUND: CCCN(CCC)C(=O)SCc1ccccc1 [Prosulfocarb]
REPORTED: 156.95 Å²

COMPOUND: CSc1nnc(C(C)(C)C)c(=O)n1N [Metribuzin]
REPORTED: 146.95 Å²

COMPOUND: CCNc1nc(Cl)nc(NCC)n1 [Simazine]
REPORTED: 142.09 Å²

COMPOUND: O=C(Nc1ccccc1)N(Cc1ccc(Cl)cc1)C1CCCC1 [Pencycuron]
REPORTED: 179.71 Å²

COMPOUND: C/N=C(/O)CSP(=O)(OC)OC [Omethoate]
REPORTED: 134.62 Å²
